- assayed target: T1, human MSLN-R3-his protein (human, UniProt Q13421 487-598)
- T1 construct: Region 3 of human mesothelin, made in HEK293E cells, His-tagged; also called human MSLN-R3 protein; hMSLN-R3-his; not shown: His tag
- T1 sequence (Q13421 495-606): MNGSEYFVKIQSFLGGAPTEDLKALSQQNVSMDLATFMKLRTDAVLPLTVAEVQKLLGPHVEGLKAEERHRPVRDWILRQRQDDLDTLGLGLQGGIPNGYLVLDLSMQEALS
- assay comment: ELISA on coated MSLN-R3; antibody 0.1 nM
readout: OD450 (OD450)

INSERT INTO assay_data (binder, value_measured) VALUES
  ('S009-F8-18.9 (antibody, human IgG1, kappa, V domains shown) VH: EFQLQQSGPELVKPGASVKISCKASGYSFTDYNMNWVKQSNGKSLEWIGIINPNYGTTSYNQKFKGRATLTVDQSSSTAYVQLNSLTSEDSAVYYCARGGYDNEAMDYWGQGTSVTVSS VL: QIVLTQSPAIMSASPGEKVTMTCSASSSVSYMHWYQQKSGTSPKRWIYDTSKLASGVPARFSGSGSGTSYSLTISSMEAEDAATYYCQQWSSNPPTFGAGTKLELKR', 0.04),
  ('Tab106 (YP218, hIgG1) (antibody, V domains shown, also called YP218 human IgG1 antibody) VH: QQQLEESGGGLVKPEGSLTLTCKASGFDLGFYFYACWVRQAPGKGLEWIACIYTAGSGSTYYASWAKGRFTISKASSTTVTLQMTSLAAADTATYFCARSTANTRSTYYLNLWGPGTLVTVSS VL: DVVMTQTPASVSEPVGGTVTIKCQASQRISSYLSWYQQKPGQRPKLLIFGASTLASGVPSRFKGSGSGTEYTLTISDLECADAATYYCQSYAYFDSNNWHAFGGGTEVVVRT', 1.38),
  ('S009-F8-33.12 (antibody, human IgG1, kappa, V domains shown) VH: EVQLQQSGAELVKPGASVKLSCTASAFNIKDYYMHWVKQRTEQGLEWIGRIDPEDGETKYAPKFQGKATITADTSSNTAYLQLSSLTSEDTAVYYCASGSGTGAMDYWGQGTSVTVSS VL: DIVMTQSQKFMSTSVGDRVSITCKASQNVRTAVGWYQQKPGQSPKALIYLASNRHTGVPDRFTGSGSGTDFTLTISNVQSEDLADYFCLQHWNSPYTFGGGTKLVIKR', 0.03),
  ('S009-F8-4.5 (antibody, human IgG1, kappa, V domains shown) VH: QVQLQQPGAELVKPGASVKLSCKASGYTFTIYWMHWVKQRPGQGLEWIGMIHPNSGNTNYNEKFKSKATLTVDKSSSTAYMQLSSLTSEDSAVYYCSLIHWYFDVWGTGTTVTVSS VL: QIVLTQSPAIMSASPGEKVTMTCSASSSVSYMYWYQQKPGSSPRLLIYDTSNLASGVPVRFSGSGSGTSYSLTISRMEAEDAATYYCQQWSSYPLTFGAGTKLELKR', 0.05),
  ('S009-F8-31.22 (antibody, human IgG1, kappa, V domains shown) VH: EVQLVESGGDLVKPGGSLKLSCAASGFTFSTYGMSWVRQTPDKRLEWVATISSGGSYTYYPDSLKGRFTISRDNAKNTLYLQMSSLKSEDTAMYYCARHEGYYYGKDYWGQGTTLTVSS VL: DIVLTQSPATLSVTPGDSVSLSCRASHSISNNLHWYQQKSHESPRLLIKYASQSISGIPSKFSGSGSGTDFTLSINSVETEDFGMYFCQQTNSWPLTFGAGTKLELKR', 0.04),
  ('S009-F8-24.14 (antibody, human IgG1, kappa, V domains shown) VH: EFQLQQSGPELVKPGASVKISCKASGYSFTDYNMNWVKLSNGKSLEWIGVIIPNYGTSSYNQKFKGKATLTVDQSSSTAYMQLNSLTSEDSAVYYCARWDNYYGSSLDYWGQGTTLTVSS VL: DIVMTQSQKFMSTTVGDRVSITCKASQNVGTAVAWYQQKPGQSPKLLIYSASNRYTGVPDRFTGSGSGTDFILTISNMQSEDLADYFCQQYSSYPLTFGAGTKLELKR', 0.04),
  ('S009-F8-9.16 (antibody, human IgG1, kappa, V domains shown) VH: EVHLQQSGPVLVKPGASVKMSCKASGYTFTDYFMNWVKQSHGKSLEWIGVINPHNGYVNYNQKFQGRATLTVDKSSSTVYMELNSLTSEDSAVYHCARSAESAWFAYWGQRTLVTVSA VL: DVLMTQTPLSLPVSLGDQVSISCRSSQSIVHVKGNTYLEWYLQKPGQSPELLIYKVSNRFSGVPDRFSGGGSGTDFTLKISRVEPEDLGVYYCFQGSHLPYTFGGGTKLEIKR', 1.38),
  ('S009-F8-36.12 (antibody, human IgG1, kappa, V domains shown) VH: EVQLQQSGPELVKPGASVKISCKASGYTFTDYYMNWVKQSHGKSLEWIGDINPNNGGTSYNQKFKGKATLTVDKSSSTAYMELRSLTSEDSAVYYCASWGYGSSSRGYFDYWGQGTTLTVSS VL: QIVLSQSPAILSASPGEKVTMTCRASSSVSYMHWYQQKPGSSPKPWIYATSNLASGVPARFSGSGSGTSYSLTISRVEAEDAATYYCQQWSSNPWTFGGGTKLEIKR', 0.04),
  ('S009-F8-12.13 (antibody, human IgG1, kappa, V domains shown) VH: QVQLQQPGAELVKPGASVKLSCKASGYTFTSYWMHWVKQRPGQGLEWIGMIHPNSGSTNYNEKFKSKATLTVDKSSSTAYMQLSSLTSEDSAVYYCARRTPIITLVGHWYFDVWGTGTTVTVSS VL: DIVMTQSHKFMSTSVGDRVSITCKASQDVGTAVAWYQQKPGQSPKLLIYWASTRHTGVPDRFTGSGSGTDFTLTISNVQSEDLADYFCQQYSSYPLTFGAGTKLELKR', 0.05);
